System: Acinetobacter
MEASUREMENT NOTES: In vitro antibacterial activity against Acinetobacter CMX 669
Format: functional
RESULT TYPE: MIC (µg/mL)

INSERT INTO measurements (compound, numeric_readout) VALUES
  ('CCn1cc(C(=O)O)c(=O)c2cc(F)c(N3CCNCC3)cc21', 6.2),
  ('CN1CCN(c2c(F)cc3c(=O)c(C(=O)O)cn(-c4ccc(F)cc4F)c3c2F)CC1', 0.39),
  ('O=C(O)c1cn(-c2ccc(F)cc2)c2c(F)c(N3CCNCC3)c(F)cc2c1=O', 0.39),
  ('O=C(O)c1cn(C2CC2)c2cc(N3CCNCC3)c(F)cc2c1=O', 1.56),
  ('NC1CCN(c2c(F)cc3c(=O)c(C(=O)O)cn(-c4ccc(F)cc4)c3c2F)C1 (stereo unspecified)', 0.78),
  ('CN1CCN(c2cc3c(cc2F)c(=O)c(C(=O)O)cn3-c2ccc(F)cc2)CC1', 0.78),
  ('Cl.O=C(O)c1cn(-c2ccc(F)cc2)c2cc(N3CCNCC3)c(F)cc2c1=O [SARAFLOXACIN HYDROCHLORIDE]', 0.2),
  ('CN1CCN(c2c(F)cc3c(=O)c(C(=O)O)cn(-c4ccc(F)cc4)c3c2F)CC1', 0.39),
  ('NC1CCN(c2c(F)cc3c(=O)c(C(=O)O)cn(-c4ccc(F)cc4F)c3c2F)C1 (stereo unspecified)', 0.39),
  ('NC1CCN(c2cc3c(cc2F)c(=O)c(C(=O)O)cn3-c2ccc(F)cc2)C1 (stereo unspecified)', 0.2),
  ('O=C(O)c1cn(-c2ccc(F)cc2F)c2c(F)c(N3CCNCC3)c(F)cc2c1=O', 0.39);
